Experiment: Primary fluorescence-based thiol-reactive (MSTI) qHTS assay for identification of artifact compounds. (AID 1845221); further: nearly all actives have a fitted effect of over 65% in size
Conditions: MSTI thiol-reactivity probe, 1 h; series mostly up to 53.8 µM
Results filed as inconclusive are left out. Active and inactive are the calls of the source. The call rests on the fitted dose curve; in most records, active means well fitted inhibition curve with a large enough effect; inconclusive means small, poorly fitted or top-dose-only effect; inactive means no such curve, though single readings can be large or run the other way.
One label from this list, please: active, inactive

## Input Could you check what this test reported for CN(C)C/C=C/C(=O)Nc1cccc(C(=O)Nc2ccc(Nc3nccc(-c4cccnc4)n3)cc2)c1 ?
## Output inactive

## Input Could you check what this test reported for C=C1C(=O)O[C@@H]2[C@H]1CCC(C)=C1CCC(=O)O[C@]12C ?
## Output active

## Input Could you check what this test reported for C=C1C(OC(=O)/C(C)=C\C)[C@@]23CCC4[C@@](C)(CCC[C@@]4(C)C(=O)O)C2CC[C@H]1C3OC(C)=O (stereo not given in full) ?
## Output inactive

## Input Could you check what this test reported for C=C(C(=O)OC)C1C(O)CC2(C)C(O)CCC(=O)C2C1O (stereo not given) ?
## Output inactive

## Input Could you check what this test reported for C=C1C[C@]23C[C@H]1CC[C@H]2[C@@]12CC[C@H](O)[C@@](C)(C(=O)O1)[C@H]2[C@@H]3C(=O)O ?
## Output inactive

## Input Could you check what this test reported for COC(=O)N[C@H](C(=O)N1[C@@H]2CC[C@@H](C2)[C@H]1c1nc2ccc(-c3ccc4c(c3)C(F)(F)c3cc(-c5cnc([C@@H]6CCC7(CC7)N6C(=O)[C@@H](NC(=O)OC)C(C)C)[nH]5)ccc3-4)cc2[nH]1)C(C)C ?
## Output inactive

## Input Could you check what this test reported for COc1cccc(C(=O)N2CCN(C(=O)COc3cccc(C)c3)CC2)c1OC ?
## Output inactive

## Input Could you check what this test reported for CC1=C(/C=C/C(C)=C\C=C\C(C)=C/C(=O)O)C(C)(C)CCC1 ?
## Output inactive

## Input Could you check what this test reported for CC1(C)CCC(C)(C)c2cc(C3(c4ccc(C(=O)O)cc4)OCCO3)ccc21 ?
## Output inactive

## Input Could you check what this test reported for C[C@@]12CC[C@@H]3[C@@](CC[C@H]4[C@@]3(C)CCC[C@@]4(C)C(=O)O)(CC1=O)C2 ?
## Output inactive

## Input Could you check what this test reported for CC(C)=CCC[C@](C)(O)[C@H]1CC[C@]2(C)[C@@H]1[C@H](O)CC1[C@@]3(C)CC[C@H](O)C(C)(C)C3[C@@H](O[C@@H]3O[C@H](CO)[C@@H](O)[C@H](O)[C@H]3O[C@@H]3OC[C@@H](O)[C@H](O)[C@H]3O)C[C@]12C (stereo not given in full) ?
## Output inactive

## Input Could you check what this test reported for CC(=O)NC1=NN(C(C)=O)C(C)(c2ccccc2)S1 (stereo not given) ?
## Output inactive

## Input Could you check what this test reported for CC(C)C(=O)OC[C@H]1O[C@H](O[C@H]2O[C@H](CO)[C@@H](O)[C@H](O)[C@H]2O)[C@H](O)[C@@H](O)[C@@H]1O ?
## Output inactive

## Input Could you check what this test reported for CC(=O)O[C@@](C)(C(=O)/C=C/C(C)(C)O)[C@H]1[C@H](O)C[C@@]2(C)[C@@H]3CC=C4[C@@H](C=C(O)C(=O)C4(C)C)[C@]3(C)C(=O)C[C@]12C ?
## Output inactive

## Input Could you check what this test reported for C#CC[C@H](c1nc2cc(Cl)ccc2c(=O)n1Nc1ccccc1)N(CCCN)C(=O)c1cccc(Cl)c1F ?
## Output inactive

----------
Tested on: CAOV3
Assay: Primary qHTS to identify gynecologic anti-cancer compounds using libraries of approved drugs and bioactive compounds (AID 1345084); further: nearly all actives have a fitted effect of over 55% in size
Details: Gynecologic cancer cell panel viability, ATPlite luminescence, 48 h; series mostly up to 57.5 µM
Records with an inconclusive call do not appear. Calls of active or inactive are those of the source. The call rests on the fitted dose curve; in most records, active means well fitted cell-killing curve with a large enough effect; inconclusive means small, poorly fitted or top-dose-only effect, or effect the other way; inactive means flat fitted curve, though single readings scatter.
One label from this list, please: true (1) = active, false (0) = inactive

## Input Could you check what this test reported for CC(C)C(NC(=O)c1ccc2ccccc2n1)C(=O)NC(CC(=O)O)C(=O)COc1c(F)cccc1F (centres undefined) ?
## Output false (0)

## Input Could you check what this test reported for CC(C)(C(=O)NCC(F)(F)C(F)(F)F)C(=O)NC1C(=O)Nc2ccccc2-c2ccccc21 (centres undefined) ?
## Output false (0)

## Input Could you check what this test reported for C=C(C)C1CC[C@]2(C(=O)O)CC[C@]3(C(=O)O)[C@H](CCC4[C@@]5(C)CC[C@H](O)C(C)(C)C5CC[C@]43C)C12 (some centres undefined) ?
## Output false (0)

## Input Could you check what this test reported for Cc1cccc(/C=N/Nc2cc(N3CCOCC3)n3nc(-c4ccncc4)cc3n2)c1 ?
## Output true (1)

## Input Could you check what this test reported for O=C(c1ccc2nccnc2c1)N1CCCCC1 ?
## Output false (0)

## Input Could you check what this test reported for C/C1=C\C[C@]2(C)C(=O)C(O)=C([C@H](C)CO)[C@H]2C/C=C(\C)[C@@H](O)CC/C(C)=C/CC1 ?
## Output false (0)

## Input Could you check what this test reported for COC(=O)C1=C2Nc3ccccc3C23CCN2CCCC(C(C)O)(C1)C23 (centres undefined) ?
## Output false (0)

## Input Could you check what this test reported for COc1cc(C)c(C(=O)O[C@H]2[C@@H](OC(C)=O)[C@H](n3ccc(=O)[nH]c3=O)O[C@@H]2CO)c(OC)c1 ?
## Output false (0)

## Input Could you check what this test reported for COc1ccc([C@@]2(O)c3c(ccc(CC=C(C)C)c3O)NC(=O)[C@@H]2OC)cc1 ?
## Output false (0)

## Input Could you check what this test reported for CC1=C2C3OC(=O)C(C)C3(O)CCC2(C)CCC1O (centres undefined) ?
## Output false (0)

## Input Could you check what this test reported for CC(O)/C=C/C1OC(=O)CC1Nc1ccc(C(=O)O)cc1 (centres undefined) ?
## Output false (0)

## Input Could you check what this test reported for CCc1cccc(CC)c1NC(=O)c1nn(C)c2c1CCc1cnc(Nc3ccc(C(=O)NC4CCN(C)CC4)cc3OC(F)(F)F)nc1-2 ?
## Output false (0)

## Input Could you check what this test reported for CC(=O)c1c(O)cc(O[C@@H]2O[C@H](CO)[C@@H](O)[C@H](O)[C@H]2O)cc1O ?
## Output false (0)

## Input Could you check what this test reported for CON(C)C(=O)[C@H](O)[C@H](Cc1ccccc1)NC(=O)c1cc2cc(Cl)ccc2[nH]1 ?
## Output false (0)

## Input Could you check what this test reported for CC/C=C\CCO[C@@H]1O[C@H](CO)[C@@H](O)[C@H](O)[C@H]1O ?
## Output false (0)

## Input Could you check what this test reported for CC(=O)OC1CC2(C)C3=CCC4(C)C5C(O)C(O)C(C(C)C)C5(C)CCC4(C)C3CCC2C(C)(C)C1OC1OC(CO)C(O)C(O)C1O (centres undefined) ?
## Output false (0)

## Input Could you check what this test reported for CC1(C)CCCC2(C)C(C(=O)O)=CCC12 (centres undefined) ?
## Output false (0)

## Input Could you check what this test reported for O=S(=O)(NC1CCC(c2cc(F)ccc2F)(S(=O)(=O)c2ccc(Cl)cc2)CC1)C(F)(F)F (centres undefined) ?
## Output false (0)

## Input Could you check what this test reported for CCCCNc1ccc(-c2ccc(CN3CCOCC3)cn2)c(NC2CCC(O)CC2)c1 (centres undefined) ?
## Output true (1)

----------
Field: activity change, negative = cytotoxicity. Provide a value for each of the compounds that follow.
Tested on: Tov112D
Experiment: Primary qHTS to identify gynecologic anti-cancer compounds using libraries of approved drugs and bioactive compounds (AID 1345084); further: nearly all actives have a fitted effect of over 55% in size; on activity change, negative = cytotoxicity: on the % scale 0 is the no-effect control and ±100 the full control effect
Conditions: Gynecologic cancer cell panel viability, ATPlite luminescence, 48 h; series mostly up to 57.5 µM
Records with an inconclusive call do not appear. Activity calls are given as the source filed them. Calls follow the shape of the dose curve; as a rule, active = well fitted cell-killing curve with a large enough effect; inconclusive = small, poorly fitted or top-dose-only effect, or effect the other way; inactive = flat fitted curve, though single readings scatter.

Form: compound = COCC1OC(OC(C)(C)C2CCC3(C)C=C(C4CCC5C4(C)CC(O)C4OC(C(C)(C)OC6OC(CO)C(O)C(O)C6NC(C)=O)CCC45C)CCC3O2)C(NC(C)=O)C(O)C1O (centres undefined) ; activity change, negative = cytotoxicity = -1.97% [at 11.6 µM] (inactive)

Form: compound = C/C=C(\C)C(=O)O[C@@H]1CC2[C@@H](CC=C3C[C@@H](O[C@H]4C[C@H](OC)[C@H](O[C@H]5C[C@H](OC)[C@H](O[C@@H]6O[C@H](C)[C@@H](O[C@H]7C[C@H](OC)[C@H](O[C@@H]8O[C@H](CO)[C@@H](O)[C@H](O)[C@H]8O)[C@@H](C)O7)[C@H](OC)[C@H]6O)[C@@H](C)O5)[C@@H](C)O4)CC[C@@]32C)[C@@]2(O)CC[C@H](C(C)=O)[C@@]12C (some centres undefined) ; activity change, negative = cytotoxicity = 5.73% [at 6.55 µM] (inactive)

Form: compound = CC1OC(OCC2OC(OC3CCC4(C)C(CCC5(C)C4CC=C4C6CC(C)(C)CCC6(C(=O)OC6OC(CO)C(O)C(O)C6O)CCC45C)C3(C)CO)C(O)C(O)C2O)C(O)C(O)C1O (centres undefined) ; activity change, negative = cytotoxicity = -1.29% [at 11.6 µM] (inactive)

Form: compound = CC1OC(O[C@H]2CC[C@@]3(C)C(CC[C@]4(C)C3CC=C3C5CC(C)(C)CC[C@]5(C(=O)OC5OC(CO)C(OC6OC(COC7OCC(O)C(O)C7O)C(O)C(O)C6O)C(O)C5O)CC[C@]34C)C2(C)C)C(O)C(O)C1OC1OCC(OC2OCC(O)C(O)C2O)C(O)C1O (some centres undefined) ; activity change, negative = cytotoxicity = -13.2% [at 6.55 µM] (inactive)

Form: compound = C=C1CC[C@@H]2[C@@](C)(CO[C@@H]3O[C@H](CO)C(O)[C@H](O)C3O)[C@H](O)CC[C@@]2(C)[C@@H]1CC/C(C)=C/CO (some centres undefined) ; activity change, negative = cytotoxicity = 4.42% [at 11.6 µM] (inactive)

Form: compound = CC(=O)N[C@@H](CCCCN)C(=O)N(C)[C@@H](CC(C)C)C(=O)N[C@H](C(=O)N(C)[C@@H](Cc1ccccc1)C(=O)N[C@H](Cc1ccccc1)C(N)=O)C(C)C ; activity change, negative = cytotoxicity = 6.63% [at 6.55 µM] (inactive)

Form: compound = CC1OC(OC2C(OC3C(O[C@H]4CC[C@@]5(C)C(CC[C@]6(C)C5C(=O)C=C5C7CC(C)(C)CC(O)[C@]7(C)CC[C@]56C)C4(C)C)OC(C(=O)O)C(O)C3O)OCC(O)C2O)C(O)C(O)C1O (some centres undefined) ; activity change, negative = cytotoxicity = -1.77% [at 11.6 µM] (inactive)

Form: compound = COC1CC(OC2CCC3(C)C(=CCC4C3C(OC(C)=O)C(OC(=O)/C=C/c3ccccc3)C3(C)C(C(C)O)CCC43O)C2)OC(C)C1OC1CC(OC)C(OC2OC(C)C(OC3OC(CO)C(O)C(O)C3O)C(OC)C2O)C(C)O1 (centres undefined) ; activity change, negative = cytotoxicity = 2.28% [at 6.55 µM] (inactive)

Form: compound = C[C@@H]1O[C@@H](O[C@@H]2[C@@H](O)[C@H](O[C@H]3CC[C@@]4(C)C(CC[C@]5(C)C4CC=C4[C@@H]6CC(C)(C)CC[C@]6(C(=O)O[C@@H]6O[C@H](CO)[C@@H](O)[C@H](O)[C@H]6O)CC[C@]45C)C3(C)C)O[C@H](C(=O)O)[C@H]2O)[C@H](O)[C@H](O)[C@H]1O (some centres undefined) ; activity change, negative = cytotoxicity = 5.96% [at 11.6 µM] (inactive)
